- SYSTEM: HIV-1 YU-2 gp120 (HIV-1 (YU-2), UniProt P35961)
- ASSAY_INFO: SPR
Give koff for every item shown.
Give bare numbers, in s⁻¹.

Use the examples below as a reference point.
{"BINDER": "Fab m18 P95A (LCDR3) (Fab, V domains shown) VH: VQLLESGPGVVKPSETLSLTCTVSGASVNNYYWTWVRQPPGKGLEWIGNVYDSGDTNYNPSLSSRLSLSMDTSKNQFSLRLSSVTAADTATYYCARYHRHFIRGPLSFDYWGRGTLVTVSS VL: LQMTQSPSFLSASVGDRVSITCRASQDIQKFLAWYQLTPGDAPKLLMYSASTLQSGVPSRFSGSGSGTEFTLTISGLQPEDFATYYCQHLKRYAYTFGQGTKLEIS", "koff (s⁻¹)": 0.0019}
{"BINDER": "Fab m18 K31R (LCDR1) (Fab, V domains shown) VH: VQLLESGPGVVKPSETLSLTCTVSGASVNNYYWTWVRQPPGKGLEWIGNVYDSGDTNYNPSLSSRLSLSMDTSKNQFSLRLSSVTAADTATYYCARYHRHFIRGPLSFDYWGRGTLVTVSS VL: LQMTQSPSFLSASVGDRVSITCRASQDIQRFLAWYQLTPGDAPKLLMYSASTLQSGVPSRFSGSGSGTEFTLTISGLQPEDFATYYCQHLKRYPYTFGQGTKLEIS", "koff (s⁻¹)": 0.0011}

(Q) For the binder Fab m18 S64A (HCDR2) (Fab, V domains shown) VH: VQLLESGPGVVKPSETLSLTCTVSGASVNNYYWTWVRQPPGKGLEWIGNVYDSGDTNYNPSLASRLSLSMDTSKNQFSLRLSSVTAADTATYYCARYHRHFIRGPLSFDYWGRGTLVTVSS VL: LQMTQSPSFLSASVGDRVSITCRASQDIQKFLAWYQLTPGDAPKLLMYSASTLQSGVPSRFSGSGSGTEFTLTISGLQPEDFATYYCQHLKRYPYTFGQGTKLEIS , what koff is on record?
(A) 0.00086
